Target: Hepatocyte growth factor receptor (Homo sapiens)
Sequence (P08581 whole entry): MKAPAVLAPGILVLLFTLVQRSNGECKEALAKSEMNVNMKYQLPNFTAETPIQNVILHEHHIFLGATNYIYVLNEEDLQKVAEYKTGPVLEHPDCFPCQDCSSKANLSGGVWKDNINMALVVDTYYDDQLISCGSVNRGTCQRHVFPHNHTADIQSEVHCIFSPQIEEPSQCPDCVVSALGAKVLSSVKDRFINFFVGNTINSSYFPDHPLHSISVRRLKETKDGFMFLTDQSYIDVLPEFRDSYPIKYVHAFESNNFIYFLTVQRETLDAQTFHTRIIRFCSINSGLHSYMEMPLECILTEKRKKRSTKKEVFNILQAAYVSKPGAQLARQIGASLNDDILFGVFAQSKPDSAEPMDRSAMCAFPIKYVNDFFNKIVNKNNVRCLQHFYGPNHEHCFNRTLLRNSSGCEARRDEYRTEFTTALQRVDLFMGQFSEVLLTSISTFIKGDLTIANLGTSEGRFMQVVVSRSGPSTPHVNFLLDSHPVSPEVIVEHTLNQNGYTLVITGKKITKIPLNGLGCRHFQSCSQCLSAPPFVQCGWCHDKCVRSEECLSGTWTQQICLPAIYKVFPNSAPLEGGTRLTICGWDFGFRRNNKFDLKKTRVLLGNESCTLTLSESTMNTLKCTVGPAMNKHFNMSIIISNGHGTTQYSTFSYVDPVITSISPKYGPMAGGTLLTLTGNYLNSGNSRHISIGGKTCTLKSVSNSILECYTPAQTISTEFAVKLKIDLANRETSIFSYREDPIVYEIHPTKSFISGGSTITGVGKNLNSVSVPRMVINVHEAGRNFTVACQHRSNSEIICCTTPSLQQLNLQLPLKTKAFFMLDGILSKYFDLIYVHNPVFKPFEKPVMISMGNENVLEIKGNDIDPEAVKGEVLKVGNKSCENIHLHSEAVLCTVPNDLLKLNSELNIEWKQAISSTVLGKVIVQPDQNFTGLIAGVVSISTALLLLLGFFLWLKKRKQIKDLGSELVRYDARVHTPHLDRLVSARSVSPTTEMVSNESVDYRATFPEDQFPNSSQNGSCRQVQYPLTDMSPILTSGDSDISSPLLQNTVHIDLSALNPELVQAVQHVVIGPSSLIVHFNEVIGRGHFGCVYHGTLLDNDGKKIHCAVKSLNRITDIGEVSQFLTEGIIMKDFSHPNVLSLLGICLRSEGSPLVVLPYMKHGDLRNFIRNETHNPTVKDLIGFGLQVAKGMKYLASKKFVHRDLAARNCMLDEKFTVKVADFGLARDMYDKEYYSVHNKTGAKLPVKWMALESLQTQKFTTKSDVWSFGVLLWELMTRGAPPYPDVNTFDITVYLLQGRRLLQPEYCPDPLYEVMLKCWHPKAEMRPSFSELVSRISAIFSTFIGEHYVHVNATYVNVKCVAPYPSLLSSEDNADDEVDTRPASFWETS
Lab note - cut at 10 nM for IC50: 1 if strictly below, -1 if not.

In [3]: df
Out[3]:
                                   molecule  label_class
0  CC(c1cc2cccnc2cc1F)n1cnc2ncc(-c3ccccc3)nc21 (stereo not given)            1
1  Cc1c(C(C)n2cnc3ncc(-c4cnc5ccccc5c4)nc32)ccc2ncccc12 (stereo not given)            1
2  CC(c1cc2cccnc2cc1F)n1cnc2ncc(-c3cnc4ccccc4c3)nc21 (stereo not given)            1
3  Cc1cc2ncccc2cc1C(C)n1cnc2ncc(-c3ccc(C(N)=O)c(F)c3)nc21 (stereo not given)           -1
4  CCC(c1cc2cccnc2cc1F)n1cnc2ncc(-c3ccccc3)nc21 (stereo not given)           -1
5  CCC(c1ccc2ncccc2c1F)n1cnc2ncc(-c3cnn(CCO)c3)nc21 (stereo not given)           -1
6  Oc1nc2ncc(-c3ccccc3)nc2n1Cc1ccc2ncccc2c1           -1
7  CCC(c1ccc2ncccc2c1F)n1cnc2ncc(-c3ccncc3)nc21 (stereo not given)           -1
8  c1cnc2ccc(Cn3cnc4ncc(-c5ccncc5)nc43)cc2c1           -1
9  FC(F)(F)c1ccc(-c2cnc3ncn(Cc4ccc5ncccc5c4)c3n2)cc1           -1

----------
Molecular target: Hepatocyte growth factor receptor (Homo sapiens)
Threshold 4 nM: IC50 strictly smaller gives met, otherwise not met.

>>> df
                                    compound  label_class
 0  CC(c1cc(F)c2ncccc2c1)n1cnc2ncc(-c3cnn(C)c3)nc21 (stereo unspecified)      not met
 1   Cn1nccc1-c1cnc2ncn(Cc3ccc4ncccc4c3)c2n1      not met
 2  CC(c1cc2cccnc2cc1F)n1cnc2ncc(-c3cn[nH]c3)nc21 (stereo unspecified)          met
 3  c1cnc2ccc(Cn3cnc4ncc(-c5cn[nH]c5)nc43)cc2c1      not met
 4  c1ccc(-c2cnc3ncn(Cc4ccc5ncccc5c4)c3n2)cc1      not met
 5  Oc1nc2ncc(-c3ccncc3)nc2n1Cc1ccc2ncccc2c1      not met
 6  CC(c1cc(F)c2ncccc2c1)n1cnc2ncc(-c3cn[nH]c3)nc21 (stereo unspecified)      not met
 7  Cc1c(C(C)n2cnc3ncc(-c4cnn(CCO)c4)nc32)ccc2ncccc12 (stereo unspecified)      not met
 8  CCC(c1cc2cccnc2cc1F)n1cnc2ncc(-c3cnn(C)c3)nc21 (stereo unspecified)      not met
 9  CC(NC/N=C/c1cnn(C)c1)c1ccc2ncccc2c1 (stereo unspecified)          met
10  CNC(=O)c1ccc(-c2cnc3ncn(C(C)c4cc5cccnc5cc4F)c3n2)cc1F (stereo unspecified)          met

----------
Experiment: Apparent permeability from basolateral to apical side in Caco2 cells at 1 to 10 uM incubated for 90 mins by LC-MS/MS analysis
Type: ADME, cell-based
Settings: human, Caco-2
If the reported Papp B→A at 1.5 h equals or exceeds 50 ×10⁻⁶ cm/s, assign class 1. If not, assign class 0.

MOLECULE	LABEL_CLASS
CC(c1cc2cccnc2cc1F)n1cnc2ncc(-c3ccc(C(N)=O)c(F)c3)nc21 (stereo unspecified)	class 1
CNC(=O)c1ccc(-c2cnc3ncn(C(C)c4cc5cccnc5cc4F)c3n2)cc1F (stereo unspecified)	class 0
C[C@@H](c1cc2cccnc2cc1F)n1cnc2ncc(-c3ccc(C(N)=O)c(F)c3)nc21	class 0
CC(c1cc2cccnc2cc1F)n1cnc2ncc(-c3cnn(C)c3)nc21 (stereo unspecified)	class 0
CC(=O)O[C@H]1C(=O)[C@@]2(C)[C@H]([C@H](OC(=O)c3ccccc3)[C@]3(O)C[C@H](OC(=O)[C@H](O)[C@@H](NC(=O)c4ccccc4)c4ccccc4)C(C)=C1C3(C)C)[C@]1(OC(C)=O)CO[C@@H]1C[C@@H]2O [PACLITAXEL]	class 0
